system: T1, human dimeric EGFR (EGFR.mFc) (human)
T1 construct: Soluble dimeric EGFR construct
assay_info: SPR 37C, mAb captured by anti-human Fc, EGFR.mFc analyte
Please go through the items and note down their Kd.
I only need the number, in nM, no unit after it.

Fill in Kd for record H1H144P (antibody, human IgG1, V domains shown, Human IgG1 Fc (H1H)) VH: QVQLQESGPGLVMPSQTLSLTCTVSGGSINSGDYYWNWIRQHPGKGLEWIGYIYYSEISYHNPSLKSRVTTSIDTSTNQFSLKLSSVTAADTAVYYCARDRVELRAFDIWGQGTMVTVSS VL: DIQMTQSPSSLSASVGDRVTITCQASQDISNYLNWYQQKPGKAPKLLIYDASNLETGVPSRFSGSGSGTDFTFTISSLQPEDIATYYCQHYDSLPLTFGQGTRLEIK
0.0217

Fill in Kd for record H1H089N (antibody, human IgG1, V domains shown, Tested in human IgG1 Fc format (H1H); also called H1M089N) VH: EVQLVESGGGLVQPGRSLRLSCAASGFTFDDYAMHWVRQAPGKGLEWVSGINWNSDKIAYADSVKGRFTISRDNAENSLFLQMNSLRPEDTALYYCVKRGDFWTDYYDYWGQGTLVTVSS VL: DIVMTQSPLSLPVTPGEPASISCRSSQSLLHSNGHNYLDWYLQKPGQSPHLLIYLVSNRASGVPDRFSGSGSGTDFTLKISRVEAEDVGVYYCIQALQTPWTFGQGTKVEIK
0.0301

Fill in Kd for record H1H143P (antibody, human IgG1, V domains shown, Human IgG1 Fc (H1H)) VH: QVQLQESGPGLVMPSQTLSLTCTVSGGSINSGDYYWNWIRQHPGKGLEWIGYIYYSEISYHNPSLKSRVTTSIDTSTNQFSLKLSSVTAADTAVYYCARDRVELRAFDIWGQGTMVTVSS VL: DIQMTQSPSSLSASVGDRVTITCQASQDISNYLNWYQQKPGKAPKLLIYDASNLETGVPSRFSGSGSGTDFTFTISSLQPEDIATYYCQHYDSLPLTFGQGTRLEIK
0.0354
